# pKd listing for each entry below
# tested on: T1, rat MerTK (rat, UniProt P57097 23-496, limits assumed)
# T1 construct: Soluble analyte in SPR
# T1 sequence (looked up): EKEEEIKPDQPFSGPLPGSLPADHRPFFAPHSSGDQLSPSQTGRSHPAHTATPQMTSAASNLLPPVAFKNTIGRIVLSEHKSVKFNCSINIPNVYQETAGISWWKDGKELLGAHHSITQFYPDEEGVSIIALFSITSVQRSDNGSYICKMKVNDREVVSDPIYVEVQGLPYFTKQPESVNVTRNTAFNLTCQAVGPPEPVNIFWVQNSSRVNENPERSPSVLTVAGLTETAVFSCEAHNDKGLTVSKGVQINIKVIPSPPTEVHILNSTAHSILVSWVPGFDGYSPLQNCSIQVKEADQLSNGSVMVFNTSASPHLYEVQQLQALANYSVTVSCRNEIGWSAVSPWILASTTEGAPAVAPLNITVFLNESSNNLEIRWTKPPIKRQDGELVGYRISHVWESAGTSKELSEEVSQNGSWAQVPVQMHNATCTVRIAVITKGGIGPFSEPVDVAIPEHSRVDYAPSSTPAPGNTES
# procedure details: SPR BIAcore T200, Ab captured, 37C
A value of pKd is the negative decimal logarithm of a concentration given in moles per litre.

Here's what some known entries look like.
h10C3.v14 (antibody, V domains shown, Humanized, human IgG1; also called 10C3 Humanized polished mAb) VH: EVQLVESGGGLVQPGGSLRLSCAASGFSLSGYTMGWVRQAPGKGLEYIGVISSGGTTYYTNWAKGRFTISKDNSKNTLYLQMGSLRAEDMAVYYCARVAFTAYGGGGFPTLHRLDLWGQGTLVTVSS VL: DQVLTQSPDSLAVSLGERATINCQSSESVYNNDYLAWYQQKPGQPPKLLIYSASTLASGVPDRFSGSGSGTDFTLTISSLQAEDVAVYYCAGGYLGNNVFGGGTKVEIK ... 8.62
Rbt10F7 (antibody, V domains shown, Recombinant rabbit monoclonal antibody, Expi293, protein A purified) VH: QSVEESGGRLVTPGTPLTLTCTVSGFSLSGYAMSWVRQAPGKGLEYIGVISSSGSSYYPSWAKGRFTISKTSTTVDLQITSPTTEDTATYFCARVQFYVGYAVYGYGIIDRLDLWGQGTLVTVSS VL: AAVLTQTPSPVSATMGGTVSISCQSSKSVYNNNWLSWYQQKPGQPPKLLIYRASTLESGVPSRFKGSGSGTQFTLTISDVHCDDAATYFCAGGYSSSSSANAFGGGTEVVVK ... 8.24

// switching to the query binder
Ask: Please look at this binder and report its pKd: h9E3.FN.v1 (antibody, V domains shown, also called h9E3.FN.V1 (Parent); 9E3.FN Humanized mAb V1) VH: EQQLVESGGGLIQPGGSLRLSCAVSGFSLSSNAMSWVRQAPGKGLEWIGIISSSGSTYSASWAKGRFTISKDSSKNTMYLQMNSLRAEDTAVYFCARVGFFVGYGAYDYGIIHRLDLWGQGTLVTVSS VL: DAQLTQSPSTLSASVGDRVTITCQSSKSIYNNNWLSWYQQKPGKPPKLLIYDASDLASGVPSRFSGSGSGTEFTLTISSLQPDDFATYYCAGGYSGDSDYAFGGGTKVEIK
Result: 8.43
